Answer each item with its documented IC50 (cytotoxicity, MTT assay), SKBR3 cells, 3 hours.
# ASSAYED_TARGET: HER2 on HER2-overexpressing breast cancer cells (SK-Br-3: human cell line) (human, UniProt P04626 23-1255)
# MEASUREMENT_PROTOCOL: cell-based or functional assay
Where no end group is shown, it is not given here.
Numbers only, in µM.

C(Maleimide‑PEG2000‑DSPE)GGGLTVSPWY (not fully specified; also: order of spacer and peptide assumed) [LTVSPWY (SEQ ID NO: 1) peptide-liposome, post inserted liposome 100 Ligand]    17.9
C(Maleimide‑PEG2000‑DSPE)GGGLTVSPWY (not fully specified; also: order of spacer and peptide assumed) [LTVSPWY (SEQ ID NO: 1) peptide-liposome, post inserted liposome 50 Ligand]    21.5
C(Maleimide‑PEG2000‑DSPE)GGGLTVSPWY (not fully specified; also: order of spacer and peptide assumed) [LTVSPWY (SEQ ID NO: 1) peptide-liposome, post inserted liposome 25 Ligand]    24.9

Give the measured IC50 (cytotoxicity, MTT assay), SKBR3 cells, 3 hours of C(Maleimide‑PEG2000‑DSPE)GGGLTVSPWY (not fully specified; also: order of spacer and peptide assumed) [LTVSPWY (SEQ ID NO: 1) peptide-liposome, post inserted liposome 200 Ligand] .
15.2
